Tested on: Escherichia coli TOP10;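 note: peptides expressed intracellularly from a pBAD plasmid library in pooled LB shake-flask culture, induced with 0.3% L-arabinose, DNA abundance read by NGS, three biological replicates, DESeq2 with apeglm shrinkage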
METHOD_DESCRIPTION: shrunken log2 fold change of peptide-encoding DNA abundance (4.5 h post-induction vs induction); higher = less antimicrobial activity (less host growth inhibition)
CONDITION_INFO: time post-induction: 4.5 h; library: site-saturation at positions 5, 18, 19, 20
Hi, to clarify the labels: true (1) covers shrunken log2 fold change from -0.01 upward, false (0) covers anything below -0.01.

>>> assigned_label("RRIRRRPPRLPRPRPRPDWPPRP")
"true (1)"
>>> assigned_label("RRIRHRPPRLPRPRPRPITCPRP")
"false (0)"
>>> assigned_label("RRIRLRPPRLPRPRPRPIACPRP")
"true (1)"
>>> assigned_label("RRIRPRPPRLPRPRPRPGLVPRP")
"true (1)"
>>> assigned_label("RRIRTRPPRLPRPRPRPYRGPRP")
"false (0)"
>>> assigned_label("RRIRPRPPRLPRPRPRPTRWPRP")
"false (0)"

Data origin: the supplement of paper PMC9112550
